For each entry below, report its IC50 value.
- Tested on: Colo-205 cells
- procedure details: MTT cell proliferation assay
- Format: cell-based
- assay conditions: Homo sapiens; Colo-205 cell line; read-out: MTT Assay IC50, Colo-205

Reported Colo-205 cells IC50 for item Nc1ccc(/C=C/C(=O)NCc2cc3cc(-c4ccc(C(=O)N5CCOCC5)cc4)cc(C(F)(F)F)c3o2)cn1 [Compound 510] was 100 to 5000 nM

Reported Colo-205 cells IC50 for item Nc1ccc(/C=C/C(=O)NCc2cc3cc(-c4ccc(S(=O)(=O)N5CCOCC5)cc4)cc(Cl)c3o2)cn1 [Compound 504] was < 100 nM

---

- Test system: MiaPaCa-2 cells
- procedure details: MTT cell proliferation assay
- Type: cell-based
- assay conditions: Homo sapiens, MIA PaCa-2, 72-hour MTT
experimental endpoint: IC50 (nM)
The figure you give is taken to be in nM; do not add the unit.

Sure, the documented IC50 for Nc1ccc(/C=C/C(=O)NCc2cc3cc(-c4ccc(C(=O)N5CCC(F)(F)CC5)cn4)cc(C(F)(F)F)c3o2)cn1 is 880

---

- Test system: 3T3 cells
- procedure details: MTT cell proliferation assay
- Assay type: cell-based
- assay conditions: Mus musculus, NIH3T3, 72-hour MTT, read-out: 3T3 MTT IC50
pIC50: −log10 of the molar value.
experimental endpoint: pIC50

Reported 3T3 cells pIC50 for item Nc1ccc(/C=C/C(=O)NCc2cc3cc(-c4ccc(C(=O)N5CCOCC5)cc4)cc(C(F)(F)F)c3o2)cn1 [Compound 510] was < 5.00

Reported 3T3 cells pIC50 for item Nc1ccc(/C=C/C(=O)NCc2cc3cc(-c4ccc(C(=O)N5CCC(F)(F)CC5)cn4)cc(C(F)(F)F)c3o2)cn1 [Compound 585] was < 5.00

Reported 3T3 cells pIC50 for item Nc1ccc(/C=C/C(=O)NCc2cc3cc(-c4ccc(S(=O)(=O)N5CCOCC5)cc4)cc(Cl)c3o2)cn1 [Compound 504] was 6.46

Reported 3T3 cells pIC50 for item Nc1ccc(/C=C/C(=O)NCc2cc3cc(-c4ccc(C(=O)N5CC[C@H](F)C5)cc4)cc(C(F)(F)F)c3o2)cn1 [Compound 525] was < 5.00

---

For each entry below, report its pIC50 value.
- Tested on: Z138 cells
- procedure details: MTT cell proliferation assay
- Type: cell-based
- assay conditions: Homo sapiens, Z-138, Z138 cells; approximately 64-72 hours incubation; read-out: MTT Assay IC50 Z-138
pIC50: −log10 of the molar value.

Sure, the documented pIC50 for Cc1noc(-c2ccc(F)cc2)c1-c1cc(C(F)(F)F)c2oc(CNC(=O)/C=C/c3ccc(N)nc3)cc2c1 [Compound 648] is 5.30 to 7.00

Sure, the documented pIC50 for C[C@H]1COCCN1C(=O)c1ccc(-c2cc(Cl)c3oc(CNC(=O)/C=C/c4ccc(N)nc4)cc3c2)cc1 [Compound 515] is 5.30 to 7.00

Sure, the documented pIC50 for Nc1ccc(/C=C/C(=O)NCc2cc3cc(-c4ccc(C(=O)N5CC6CCC(C5)O6)cn4)cc(C(F)(F)F)c3o2)cn1 [Compound 632] is 5.30 to 7.00

Sure, the documented pIC50 for Nc1ccc(/C=C/C(=O)NCc2cc3cc(-c4ccc(C(=O)N5CCOCC5)cc4)cc(Cl)c3o2)cn1 [Compound 502] is 5.30 to 7.00

Sure, the documented pIC50 for CC1(O)CCN(C(=O)c2ccc(-c3cc(C(F)(F)F)c4oc(CNC(=O)/C=C/c5ccc(N)nc5)cc4c3)cc2)CC1 [Compound 571] is > 7.00

Sure, the documented pIC50 for Nc1ccc(/C=C/C(=O)NCc2cc3cc(-c4ncc(C(=O)N5CCNCC5)cn4)cc(Cl)c3o2)cn1 [Compound 649] is 5.30 to 7.00

Sure, the documented pIC50 for Nc1ccc(/C=C/C(=O)NCc2cc3cc(-c4cc(C(=O)N5CCOCC5)c(F)cn4)cc(C(F)(F)F)c3o2)cn1 [Compound 580] is > 7.00

Cited source for all entries: patent US12331040B2
